Target: T1, recombinant human DLL4 (Cat# 1506-D4/CF, R&D Systems) (human, UniProt Q9NR61 27-529)
T1 construct: Bought protein; also called hDLL4; rHuman DLL4
Assay: ELISA, DLL4 coated, Fab 50 nM
ELISA absorbance at 450 nm overview
Unit A450 implied. Number only.

[[record]]
binder = "Fab VH5-51_IGHD5-18*01>3_IGHJ4*01 G100K/G104T S28R & V3-4_IGLJ1*01 (Fab, V domains shown, Fab made in E. coli: VH on CH1 with His6 and Flag tags (Plasmid A), VL on lambda CL (Plasmid E); also called H: KT S28R & L: wt) VH: EVQLVQSGAEVKKPGESLKISCKGSGYRFTSYWIGWVRQMPGKGLEWMGIIYPGDSDTRYSPSFQGQVTISADKSISTAYLQWSSLKASDTAMYYCARRKYSYTYDYFDYWGQGTLVTVSS VL: QTVVTQEPSFSVSPGGTVTLTCGLSSGSVSTSYYPSWYQQTPGQAPRTLIYSTNTRSSGVPDRFSGSILGNKAALTITGAQADDESDYYCVLYMGSGISYVFGTGTKVTVL"
result = 0.23

[[record]]
binder = "Fab VH5-51_IGHD5-18*01>3_IGHJ4*01 G100K/G104T G24T/S28R/G35V & V3-4_IGLJ1*01 V91L/S96P S52G (Fab, V domains shown, Fab made in E. coli: VH on CH1 with His6 and Flag tags (Plasmid A), VL on lambda CL (Plasmid E); also called H: KT TRV & L: LP S52G) VH: EVQLVQSGAEVKKPGESLKISCKTSGYRFTSYWIVWVRQMPGKGLEWMGIIYPGDSDTRYSPSFQGQVTISADKSISTAYLQWSSLKASDTAMYYCARRKYSYTYDYFDYWGQGTLVTVSS VL: QTVVTQEPSFSVSPGGTVTLTCGLSSGSVSTSYYPSWYQQTPGQAPRTLIYGTNTRSSGVPDRFSGSILGNKAALTITGAQADDESDYYCLLYMGPGISYVFGTGTKVTVL"
result = 1.02

[[record]]
binder = "Fab VH5-51_IGHD5-18*01>3_IGHJ4*01 G100K/G104T G24T/S28R/G35V & V3-4_IGLJ1*01 V91L/S96P S52M (Fab, V domains shown, Fab made in E. coli: VH on CH1 with His6 and Flag tags (Plasmid A), VL on lambda CL (Plasmid E); also called H: KT TRV & L: LP S52M) VH: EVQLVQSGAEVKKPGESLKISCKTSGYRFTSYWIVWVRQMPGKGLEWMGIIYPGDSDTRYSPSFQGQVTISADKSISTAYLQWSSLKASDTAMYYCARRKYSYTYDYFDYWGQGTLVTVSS VL: QTVVTQEPSFSVSPGGTVTLTCGLSSGSVSTSYYPSWYQQTPGQAPRTLIYMTNTRSSGVPDRFSGSILGNKAALTITGAQADDESDYYCLLYMGPGISYVFGTGTKVTVL"
result = 0.8

[[record]]
binder = "Fab VH5-51_IGHD5-18*01>3_IGHJ4*01 G100K/G104T G24T/S28R/G35V & V3-4_IGLJ1*01 V91L/S96P S52K (Fab, V domains shown, Fab made in E. coli: VH on CH1 with His6 and Flag tags (Plasmid A), VL on lambda CL (Plasmid E); also called H: KT TRV & L: LP S52K) VH: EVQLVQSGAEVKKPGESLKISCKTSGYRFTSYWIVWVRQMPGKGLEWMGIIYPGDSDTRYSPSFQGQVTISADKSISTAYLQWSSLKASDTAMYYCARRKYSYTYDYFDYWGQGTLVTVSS VL: QTVVTQEPSFSVSPGGTVTLTCGLSSGSVSTSYYPSWYQQTPGQAPRTLIYKTNTRSSGVPDRFSGSILGNKAALTITGAQADDESDYYCLLYMGPGISYVFGTGTKVTVL"
result = 1.03

[[record]]
binder = "Fab VH5-51_IGHD5-18*01>3_IGHJ4*01 G100K/G104T G24T/S28R/G35V & V3-4_IGLJ1*01 V91L/S96P S52F (Fab, V domains shown, Fab made in E. coli: VH on CH1 with His6 and Flag tags (Plasmid A), VL on lambda CL (Plasmid E); also called H: KT TRV & L: LP S52F) VH: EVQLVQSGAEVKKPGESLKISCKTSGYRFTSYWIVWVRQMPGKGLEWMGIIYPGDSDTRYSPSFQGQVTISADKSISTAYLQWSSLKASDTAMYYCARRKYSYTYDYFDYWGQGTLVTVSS VL: QTVVTQEPSFSVSPGGTVTLTCGLSSGSVSTSYYPSWYQQTPGQAPRTLIYFTNTRSSGVPDRFSGSILGNKAALTITGAQADDESDYYCLLYMGPGISYVFGTGTKVTVL"
result = 0.69


Now look at this entry.
Problem: // returns reported ELISA absorbance at 450 nm for input Fab VH5-51_IGHD5-18*01>3_IGHJ4*01 G100K/G104T G24T/S28R/G35V & V3-4_IGLJ1*01 V91L/S96P S52H (Fab, V domains shown, Fab made in E. coli: VH on CH1 with His6 and Flag tags (Plasmid A), VL on lambda CL (Plasmid E); also called H: KT TRV & L: LP S52H) VH: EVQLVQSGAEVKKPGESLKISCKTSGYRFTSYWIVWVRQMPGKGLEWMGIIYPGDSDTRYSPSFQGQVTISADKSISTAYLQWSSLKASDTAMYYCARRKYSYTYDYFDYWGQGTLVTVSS VL: QTVVTQEPSFSVSPGGTVTLTCGLSSGSVSTSYYPSWYQQTPGQAPRTLIYHTNTRSSGVPDRFSGSILGNKAALTITGAQADDESDYYCLLYMGPGISYVFGTGTKVTVL
Result: 0.91
